tested on: MARIMO; experiment: cell viability relative to vehicle control; higher = less cytotoxic; conditions: 10 µM; SRSF2 genotype: SRSF2 wt/wt;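 note: after 48 h exposure read by CellTiter-Glo luminescence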
Structures can show the parent of a compound that is named as a salt.
ENDPOINT: cell viability (%)
Answers are plain numbers, in %.

Dear colleague, could you send me cell viability for each of the items below? Thanks.
1. O=c1[nH]cnc2ccccc12 [4-Hydroxyquinazoline]
2. Nc1cc(C(F)(F)F)c(-c2cc(N3CCOCC3)nc(N3CCOCC3)n2)cn1
3. CCC(=O)O[C@]1(C(=O)CCl)[C@@H](C)C[C@H]2[C@@H]3CCC4=CC(=O)C=C[C@]4(C)[C@@]3(F)[C@@H](O)C[C@@]21C [Clobetasol propionate]
4. Cc1cccc(Oc2cnc(=O)[nH]c2)c1
5. C[C@@H]1O[C@@H](OC[C@H]2O[C@@H](Oc3cc(O)c4c(c3)O[C@H](c3ccc(O)c(O)c3)CC4=O)[C@H](O)[C@@H](O)[C@@H]2O)[C@H](O)[C@H](O)[C@H]1O
6. CNC(=O)c1ccccc1Sc1ccc2c(/C=C/c3ccccn3)n[nH]c2c1

[92.2, 20.3, 96.7, 97, 100, 65.2]

Quick batch: cell viability for everything below.
1. CCN(CCCc1ccccc1)CCCc1ccccc1 [Alverine Citrate]
2. O=C(O)[C@H]1O[C@@H](Oc2cc3oc(-c4ccccc4)cc(=O)c3c(O)c2O)[C@H](O)[C@@H](O)[C@@H]1O

[83.8, 97.8]

Would you be so kind as to report cell viability for each listed record?
1. CC(C)(OCc1nn(Cc2ccccc2)c2ccccc12)C(=O)O
2. O=C(O)C(Cc1ccccc1[N+](=O)[O-])=NNc1nc(-c2ccc(Cl)c(Cl)c2)cs1
3. COc1cc2oc(-c3ccc(O)cc3)cc(=O)c2c(O)c1[C@@H]1O[C@H](CO)[C@@H](O)[C@H](O)[C@H]1O[C@@H]1O[C@H](CO)[C@@H](O)[C@H](O)[C@H]1O
4. C[C@@H]1[C@H](O)[C@@H](C)/C=C/C=C/C=C/C=C/C=C/C=C/C=C/[C@H](O[C@@H]2O[C@H](C)[C@@H](O)[C@H](N)[C@@H]2O)C[C@@H]2O[C@](O)(C[C@@H](O)C[C@@H](O)[C@H](O)CC[C@@H](O)C[C@@H](O)CC(=O)O[C@H]1C)C[C@H](O)[C@H]2C(=O)O
5. COc1cc(CO)ccc1O
6. CC1(C)[C@@H](OC(=O)CCC(=O)O)CC[C@]2(C)[C@H]3C(=O)C=C4[C@@H]5C[C@@](C)(C(=O)O)CC[C@]5(C)CC[C@@]4(C)[C@]3(C)CC[C@@H]12 [Carbenoxolone disodiuM]

[103, 114, 101, 103, 100, 99]

###

tested on: K562; assay: cell viability relative to vehicle control; higher = less cytotoxic; settings: 10 µM; SRSF2 genotype: SRSF2 wt/wt
Structures can show the parent of a compound that is named as a salt.
ENDPOINT: cell viability

Use these answered entries as a reference point.
[[record]]
compound = "CCCc1nc2c(C)cc(-c3nc4ccccc4n3C)cc2n1Cc1ccc(-c2ccccc2C(=O)O)cc1 [Telmisartan (Micardis)]"
measured_result = "99.5%"

[[record]]
compound = "C[S+](CC[C@H](N)C(=O)[O-])C[C@H]1O[C@@H](n2cnc3c(N)ncnc32)[C@H](O)[C@@H]1O (stereo partly drawn) [Ademetionine]"
measured_result = "119%"

[[record]]
compound = "O=C(Nc1cc(C(F)(F)F)cc(C(F)(F)F)c1)c1cc(Cl)ccc1O"
measured_result = "5.97%"


// for each compound in input: emit cell viability
1. O=C(O)/C=C/c1ccc(O)c(O)c1 [Caffeic acid]
2. C[C@@H]1C(=O)O[C@H]2C[C@@]34[C@H]5C[C@@H](C(C)(C)C)[C@]36[C@@H](OC(=O)[C@@H]6O)O[C@@]4(C(=O)O5)[C@]21O [Ginkgolide A]
3. N[C@@H](Cc1cc(I)c(Oc2cc(I)c(O)c(I)c2)c(I)c1)C(=O)O [Levothyroxine sodium]
4. Cn1nnc(-c2ccc(-c3ccc(N4C[C@H](COP(=O)(O)O)OC4=O)cc3F)cn2)n1 [Tedizolid Phosphate]
5. CC(C)NCC(O)COc1cccc2ccccc12 (stereo not drawn) [Propranolol HCl]

1: 94.3%; 2: 97.8%; 3: 106%; 4: 84.9%; 5: 97.6%
